The reader will find reported IC50 values listed item by item below.
- System: MCF7
- experimentSummary: cells
- conditionLabel: Homo sapiens, MCF7, 72 h

Here is how some compounds turned out for IC50.
>  <structureAsSmiles>
CCc1c(-c2ccc(O)cc2Cl)c(=O)oc2cc(O)ccc12

>  <result>
49.3 µM

$$$$
>  <structureAsSmiles>
Cc1c(-c2ccc(O)cc2Cl)c(=O)oc2cc(O)ccc12

>  <result>
21.6 µM

$$$$
>  <structureAsSmiles>
O=c1oc2cc(O)ccc2cc1-c1ccc(O)cc1

>  <result>
> 100 µM

$$$$
>  <structureAsSmiles>
O=c1oc2cc(O)ccc2c(-c2ccc(O)cc2)c1-c1ccc(O)cc1

>  <result>
49 µM

$$$$
>  <structureAsSmiles>
CCc1c(-c2ccc(O)cc2F)c(=O)oc2cc(O)ccc12

>  <result>
16.1 µM

$$$$
>  <structureAsSmiles>
O=c1oc2cc(O)ccc2c(-c2ccc(O)c(F)c2)c1-c1ccc(O)c(F)c1

>  <result>
40.1 µM

$$$$
>  <structureAsSmiles>
O=c1oc2cc(O)ccc2cc1-c1ccc(O)c(F)c1

>  <result>
> 100 µM

$$$$
>  <structureAsSmiles>
CCc1c(-c2ccc(O)c(F)c2)c(=O)oc2cc(O)ccc12

>  <result>
50 µM

$$$$

Inquiry: # input compound: "Cc1cc(O)ccc1-c1c(C)c2ccc(O)cc2oc1=O" ; wanted: its IC50
Reply text: > 100 µM

====

- targetSystem: Estrogen receptor beta (Homo sapiens)
- Sequence (Q92731 whole entry): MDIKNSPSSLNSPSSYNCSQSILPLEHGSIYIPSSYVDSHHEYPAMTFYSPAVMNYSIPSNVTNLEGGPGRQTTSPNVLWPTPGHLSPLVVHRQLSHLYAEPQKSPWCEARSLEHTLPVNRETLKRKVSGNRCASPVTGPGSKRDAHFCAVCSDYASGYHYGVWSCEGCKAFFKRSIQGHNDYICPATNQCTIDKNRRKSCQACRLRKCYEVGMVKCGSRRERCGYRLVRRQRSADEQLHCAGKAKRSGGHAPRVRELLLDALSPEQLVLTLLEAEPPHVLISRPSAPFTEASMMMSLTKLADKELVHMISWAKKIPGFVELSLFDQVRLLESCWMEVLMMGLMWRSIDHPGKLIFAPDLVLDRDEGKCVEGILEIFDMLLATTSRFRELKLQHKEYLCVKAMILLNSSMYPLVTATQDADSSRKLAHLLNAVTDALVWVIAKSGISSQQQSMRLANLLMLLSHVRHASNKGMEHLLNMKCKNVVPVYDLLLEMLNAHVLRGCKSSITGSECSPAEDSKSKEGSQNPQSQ
- experimentSummary: Agonist activity at ERbeta (unknown origin) expressed in HEK293T cells after 24 hrs by luciferase reporter gene assay
measureName: EC50 (nM)
Form entry: value (nM) — number only.

The following molecules have reported results that may help.
>  <structureAsSmiles>
O=c1oc2cc(O)ccc2c(-c2ccc(O)cc2)c1-c1ccc(O)cc1

>  <unitsLabel>
nM

>  <EC50>
12

$$$$
>  <structureAsSmiles>
Cc1c(-c2ccc(O)cc2Cl)c(=O)oc2cc(O)ccc12

>  <unitsLabel>
nM

>  <EC50>
894

$$$$
>  <structureAsSmiles>
O=c1oc2cc(O)ccc2cc1-c1ccc(O)cc1

>  <unitsLabel>
nM

>  <EC50>
542

$$$$
>  <structureAsSmiles>
Cc1cc(O)ccc1-c1c(C)c2ccc(O)cc2oc1=O

>  <unitsLabel>
nM

>  <EC50>
11

$$$$
>  <structureAsSmiles>
O=c1oc2cc(O)ccc2cc1-c1ccc(O)c(F)c1

>  <unitsLabel>
nM

>  <EC50>
207

$$$$

Switching to the query record.
Inquiry: Item under review: "CCc1c(-c2ccc(O)cc2Cl)c(=O)oc2cc(O)ccc12" . Reported EC50?
Reply text: 343

====

- targetSystem: Estrogen receptor (Homo sapiens)
- experimentSummary: Antagonist activity at ERalpha (unknown origin) expressed in HEK293T cells assessed as inhibition of estradiol-induced response after 24 hrs by luciferase reporter gene assay relative to estradiol
- Format: cell-based
measureName: Efficacy (%)
Unit % implied. Number only.

Please review the following examples before continuing.
>  <structureAsSmiles>
O=c1oc2cc(O)ccc2c(-c2ccc(O)cc2)c1-c1ccc(O)cc1

>  <numericResult>
15.2

$$$$
>  <structureAsSmiles>
O=c1oc2cc(O)ccc2cc1-c1ccc(O)cc1

>  <numericResult>
101

$$$$
>  <structureAsSmiles>
O=c1oc2cc(O)ccc2c(-c2ccc(O)c(F)c2)c1-c1ccc(O)c(F)c1

>  <numericResult>
57.8

$$$$
>  <structureAsSmiles>
Cc1c(-c2ccc(O)cc2Cl)c(=O)oc2cc(O)ccc12

>  <numericResult>
84.6

$$$$
>  <structureAsSmiles>
Cc1cc(O)ccc1-c1c(C)c2ccc(O)cc2oc1=O

>  <numericResult>
65.3

$$$$
>  <structureAsSmiles>
CCc1c(-c2ccc(O)cc2Cl)c(=O)oc2cc(O)ccc12

>  <numericResult>
120

$$$$
>  <structureAsSmiles>
O=c1oc2cc(O)ccc2cc1-c1ccc(O)c(F)c1

>  <numericResult>
124

$$$$

Next, consider the following compound.
Inquiry: For the compound "CCc1c(-c2ccc(O)cc2F)c(=O)oc2cc(O)ccc12" , what Efficacy is on record?
Reply text: 26.4
